B1: ADD1 (parent)
chain: FASDGDSGTCSPLRHSFQKQQREK

variants of: B1; assay: protein stability index of a GFP-peptide fusion (GPS, HEK-293T) (PSI 1-6); higher = more stable; settings: c terminus: a fixed tail appended;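 also: lentivirally expressed fusions sorted by FACS into six bins by GFP to DsRed ratio, PSI derived from sequencing read proportions per bin multiplied by bin number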
met means recorded protein stability index is 3 or above; not met means it is below 3.

The examples below pair each entry with its known result.
>  <biosequence>
FASDGDSGTCSPLRHSNQKQQREK [F17N]

>  <label class>
met

$$$$
>  <biosequence>
HASDGDSGTCSPLRHSFQKQQREK [F1H]

>  <label class>
met

$$$$
>  <biosequence>
FASDGDSGTCSPLRHSFGKQQREK [Q18G]

>  <label class>
met

$$$$
>  <biosequence>
FAWDGDSGTCSPLRHSFQKQQREK [S3W]

>  <label class>
not met

$$$$
>  <biosequence>
FASDGDSGTCSPARHSFQKQQREK [L13A]

>  <label class>
met

$$$$

Problem: # bool: protein stability index of FASDGDSGMCSPLRHSFQKQQREK [T9M] >= 3
Result: not met

Problem: # bool: protein stability index of FASDGTSGTCSPLRHSFQKQQREK [D6T] >= 3
Result: not met

Problem: # bool: protein stability index of FASDGDSGTCSPLRHSFQKQQLEK [R22L] >= 3
Result: met

Problem: # bool: protein stability index of FASDGDSGTCSPLRPSFQKQQREK [H15P] >= 3
Result: met

Problem: # bool: protein stability index of FASDGDSGTCSPLRHSFQKQQRVK [E23V] >= 3
Result: met

Problem: # bool: protein stability index of FASDGDSGECSPLRHSFQKQQREK [T9E] >= 3
Result: met

Problem: # bool: protein stability index of FASDGDSATCSPLRHSFQKQQREK [G8A] >= 3
Result: not met

Problem: # bool: protein stability index of FASDGDSPTCSPLRHSFQKQQREK [G8P] >= 3
Result: met

Problem: # bool: protein stability index of FASDGDSGTCSPLRHSFQKQQRAK [E23A] >= 3
Result: met
